The origin of these recorded values is ChEMBL document CHEMBL3585263.

# Test system: Cytochrome P450 1A2 (Homo sapiens, UniProt P05177)
# Sequence (P05177 whole entry): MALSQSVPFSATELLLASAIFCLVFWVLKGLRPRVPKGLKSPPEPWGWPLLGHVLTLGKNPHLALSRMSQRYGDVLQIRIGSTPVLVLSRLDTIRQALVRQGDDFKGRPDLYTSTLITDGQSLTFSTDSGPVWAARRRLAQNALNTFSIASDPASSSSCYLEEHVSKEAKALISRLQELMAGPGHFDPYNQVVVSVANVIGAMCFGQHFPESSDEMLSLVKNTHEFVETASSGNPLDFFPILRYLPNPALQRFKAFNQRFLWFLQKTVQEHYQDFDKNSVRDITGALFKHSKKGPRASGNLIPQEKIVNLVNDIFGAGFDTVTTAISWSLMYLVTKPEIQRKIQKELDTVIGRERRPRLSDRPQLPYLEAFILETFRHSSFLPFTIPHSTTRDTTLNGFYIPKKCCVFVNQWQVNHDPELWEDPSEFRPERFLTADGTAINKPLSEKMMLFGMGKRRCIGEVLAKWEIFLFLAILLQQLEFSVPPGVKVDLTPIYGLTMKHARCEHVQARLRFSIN
Quantity: IC50 (µM)
One number for each entry, in µM.

## Input Quick one: IC50 for Cc1cc(C)nc(N2C[C@H]3CN(C(=O)c4ccc(F)cc4-n4nccn4)C[C@H]3C2)n1 ?
## Output 9.3

====

# Test system: Orexin/Hypocretin receptor type 1 (Homo sapiens, UniProt O43613)
# Sequence (O43613 whole entry): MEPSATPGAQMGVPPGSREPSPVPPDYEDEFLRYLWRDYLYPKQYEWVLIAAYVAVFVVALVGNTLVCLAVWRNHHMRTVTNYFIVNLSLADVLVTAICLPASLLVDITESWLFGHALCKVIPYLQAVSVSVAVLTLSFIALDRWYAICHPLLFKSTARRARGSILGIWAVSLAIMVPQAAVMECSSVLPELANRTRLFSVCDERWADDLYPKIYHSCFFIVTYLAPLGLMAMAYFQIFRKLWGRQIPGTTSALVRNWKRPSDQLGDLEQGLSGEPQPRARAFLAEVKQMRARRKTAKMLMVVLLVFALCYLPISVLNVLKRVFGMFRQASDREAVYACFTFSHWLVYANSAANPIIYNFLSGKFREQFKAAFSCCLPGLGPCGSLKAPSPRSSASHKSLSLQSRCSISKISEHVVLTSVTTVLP
# Assay summary: Binding affinity to human OX1 receptor
pKi: −log10 of the molar value.
Rule: criterion met for pKi not less than 6, criterion not met for anything less.

Known results for compounds:
• COc1ccc(C(=O)N2C[C@@H]3CN(c4nc5ccc(F)cc5s4)C[C@@H]3C2)c(OC)c1 = criterion not met
• O=C(c1ccccc1-c1cccs1)N1C[C@@H]2CN(c3nc4ccc(F)cc4s3)C[C@@H]2C1 = criterion met
• COc1ccc(C(=O)N2C[C@@H]3CN(c4nc5ccc(OC)cc5s4)C[C@@H]3C2)c(OC)c1 = criterion not met
• Cc1cc(C)nc(N2C[C@H]3CN(C(=O)c4ccccc4-c4ncn[nH]4)C[C@H]3C2)n1 = criterion not met
• COc1cccc(OC)c1C(=O)N1C[C@@H]2CN(c3nc4ccc(Cl)cc4s3)C[C@@H]2C1 = criterion not met
• Cc1cc(C)nc(N2C[C@H]3CN(C(=O)c4ccccc4-c4cccs4)C[C@H]3C2)n1 = criterion met
• O=C(c1ccccc1-c1cccs1)N1C[C@@H]2CN(c3cnc4ccccc4n3)C[C@@H]2C1 = criterion met
• COc1ccc(C(=O)N2C[C@@H]3CN(c4nc5ccc(Cl)cc5s4)C[C@@H]3C2)c(OC)c1 = criterion not met

## Input Exam item: decide whether the reported pKi for COc1ccnc(N2C[C@H]3CN(C(=O)c4c(C)ccc5ccccc45)C[C@H]3C2)n1 is at least 6.
## Output criterion not met

## Input hey, is pKi for this one >= 6? CCOc1ccc2ccccc2c1C(=O)N1C[C@@H]2CN(c3nc(C)cc(C)n3)C[C@@H]2C1
## Output criterion met

## Input Tell me whether pKi is at least 6 here: COc1cc(OC)nc(N2C[C@H]3CN(C(=O)c4ccccc4-c4cccs4)C[C@H]3C2)n1
## Output criterion met

## Input Given the entry Cc1cc(C)nc(N2C[C@H]3CN(C(=O)c4c(C)ccc5ccccc45)C[C@H]3C2)n1 , answer whether its pKi meets or surpasses 6.
## Output criterion not met

## Input Threshold query (pKi >= 6) on Cc1cc(C)nc(N2C[C@H]3CN(C(=O)c4ccccc4-c4cccc(F)c4)C[C@H]3C2)n1
## Output criterion not met

====

# Assay summary: Volume of distribution at steady state in Sprague-Dawley rat at 10 mg/kg, po and 1 mg/kg, iv
# Assay type: ADME, organism-based
# Test context: in vivo, read-out: Vdss
For each entry below, report its Vd value.
Numbers only, in L/kg.

Example compounds with recorded Vd:
* Cc1cc(C)nc(N2C[C@H]3CN(C(=O)c4ccc(F)cc4-n4nccn4)C[C@H]3C2)n1 | 1.5
* Cc1cc(C)nc(N2C[C@H]3CN(C(=O)c4cccc(F)c4-n4nccn4)C[C@H]3C2)n1 | 0.7
* Cc1cc(C)nc(N2C[C@H]3CN(C(=O)c4ccccc4-n4nccn4)C[C@H]3C2)n1 | 0.7
* Cc1cc(C)nc(N2C[C@H]3CN(C(=O)c4c(F)cccc4-n4nccn4)C[C@H]3C2)n1 | 0.7

Now consider a different compound.
## Input Need Vd of Cc1cc(C)nc(N2C[C@H]3CN(C(=O)c4ccccc4-c4ncn[nH]4)C[C@H]3C2)n1 , thanks.
## Output 3.9

====

# Assay summary: Chemical stability of the compound in pH 2 phosphate buffer assessed as compound remaining at room temperature after 4 weeks by HPLC analysis
# Assay type: physicochemical
# Test context: read-out: Stability
Quantity: remaining at 672 h (%)
One number for each entry, in %.

## Input So what's the measured remaining at 672 h for this one? Cc1cc(C)nc(N2C[C@H]3CN(C(=O)c4c(F)cccc4-n4nccn4)C[C@H]3C2)n1
## Output 102

====

# Assay summary: Half life in cynomolgus monkey at 1 mg/kg, iv
# Assay type: ADME, organism-based, Macaca fascicularis
# Test context: in vivo
Quantity: half-life (min)
Answers are plain numbers, in min.

## Input Given the compound Cc1cc(C)nc(N2C[C@H]3CN(C(=O)c4c(F)cccc4-n4nccn4)C[C@H]3C2)n1 , what is its reported half-life?
## Output 24

====

# Test system: Orexin/Hypocretin receptor type 1 (Homo sapiens)
# Assay summary: Binding affinity to human OX1 receptor expressed in CHO cell membranes by scintillation counting analysis
Quantity: Ki (nM)
One number for each entry, in nM.

## Input Entry under review: COc1cccc(OC)c1C(=O)N1CCCN(c2nc3ccc(Cl)cc3s2)CC1 . Reported Ki?
## Output 216

====

# Assay summary: Chemical stability of the compound in pH 7.4 phosphate buffer assessed as compound remaining at room temperature after 1 week by HPLC analysis
# Format: physicochemical
# Test context: read-out: Stability
Quantity: remaining at 168 h (%)
Numbers only, in %.

## Input Given Cc1cc(C)nc(N2C[C@H]3CN(C(=O)c4c(F)cccc4-n4nccn4)C[C@H]3C2)n1 , state its recorded remaining at 168 h.
## Output 101

====

# Test system: Orexin/Hypocretin receptor type 1 (Homo sapiens, UniProt O43613)
# Assay summary: Binding affinity to human OX1 receptor
Quantity: Ki (nM)
One number for each entry, in nM.

A selection of reference data follows.
• O=C(c1ccccc1-c1ccccc1)N1C[C@@H]2CN(c3nc4ccc(F)cc4s3)C[C@@H]2C1 = 925
• O=C(c1ccccc1-c1ccccc1)N1C[C@@H]2CN(c3cnc4ccccc4n3)C[C@@H]2C1 = 1320
• O=C(c1ccccc1-c1ccccc1)N1C[C@@H]2CN(c3nc4ccccc4s3)C[C@@H]2C1 = 1400

Lab note: next compound to report on.
## Input Would you mind telling me what Ki value was observed for O=C(c1ccccc1-c1ccccc1)N1C[C@@H]2CN(c3nccc(-c4ccccc4)n3)C[C@@H]2C1 ?
## Output 765

====

# Test system: Orexin/Hypocretin receptor type 1 (Homo sapiens)
# Assay summary: Binding affinity to human OX1 receptor
Quantity: Ki

• Cc1ccnc(N2C[C@H]3CN(C(=O)c4ccccc4-c4ccccc4)C[C@H]3C2)n1 = > 10 µM
• COc1ccc(C(=O)N2C[C@@H]3CN(c4nc5ccc(C)cc5s4)C[C@@H]3C2)c(OC)c1 = > 10 µM

## Input Item under review: O=C(c1ccccc1-n1cccn1)N1C[C@@H]2CN(c3cnc4ccccc4n3)C[C@@H]2C1 . Reported Ki?
## Output > 10 µM
